Ref: patent US20250136553A1

# system: human-KAT6A (MYST domain 507-778 aa) (Homo sapiens (Human))
# method_description: KAT6A biochemical assay (TR-FRET)
# run_conditions: TR-FRET; histone H4 peptide 200 nM, acetyl-CoA 600 nM; read-out: KAT6A IC50
recorded_endpoint: IC50 (nM)

Worked set:
- molecule: "COc1nc(C(=O)N[S@@](=N)(=O)c2cccc3c2OCC3)ccc1Cn1cccn1 [Compound 303a]"
  result_units: "nM"
  IC50: 26
- molecule: "COc1cc(OC)c(S(=O)(=O)NC(=O)c2ccc(Cn3cccn3)c(OC)c2)cc1F"
  result_units: "nM"
  IC50: 18
- molecule: "COc1cc(C(=O)NS(=N)(=O)c2c(OC)cccc2OC)ccc1Cn1cccn1 (centres unmarked)"
  result_units: "nM"
  IC50: 34
- molecule: "COc1cc(C(=O)NS(=O)(=O)c2cc3c(cc2OC)CCC3)ccc1Cn1cccn1"
  result_units: "nM"
  IC50: 12
- molecule: "COc1nc(C(=O)N[S@](=N)(=O)c2c(F)cccc2F)ccc1Cn1cccn1 [Compound 308b]"
  result_units: "nM"
  IC50: 49

P: COc1cccc(OC)c1S(=O)(=O)NC(=O)c1ccc(Cn2cccn2)c(C2CC2)c1
Q: COc1ccc2c(c1S(=O)(=O)NC(=O)c1ccc(Cn3cccn3)c(OC)n1)CCCC2
## Task For P and Q , which recorded IC50 is lower? Your choice should be expressed through its label.
## Result Q
(Q: 11 nM, P: 19 nM)

* * *

# system: human-KAT6A (MYST domain 507-778 aa) (Homo sapiens (Human))
# method_description: KAT6A biochemical assay (TR-FRET)
# run_conditions: TR-FRET; histone H4 peptide 200 nM, acetyl-CoA 600 nM; read-out: KAT6A IC50
# Description: TR-FRET based methods were used for assaying compounds of the present invention for KAT6A enzyme inhibitory activity. TR-FRET is a homogeneous proximity assay where Europium-labelled anti-acetyl lysine antibody binds to the acetylated substrate labelled with biotin, which in turn binds to streptavidin-labelled APC fluorescence acceptor. […] IC50 values of the compounds were determined by fitting the dose-response data to sigmoidal curve fitting equation using Graph pad prism software V9.
recorded_endpoint: IC50 (nM)

- molecule: "COc1cc(Cn2cccn2)ccc1C(=O)NS(=O)(=O)c1cc(C(C)(C)C)ccc1OC [Compound 4]"
  result_units: "nM"
  IC50: 82

P: COc1nc(C(=O)N[S@](=N)(=O)c2cccc3c2OCC3)ccc1Cn1cccn1 [Compound 303b]
Q: COc1ccc(C2CC2)cc1S(=O)(=O)NC(=O)c1ccc(Cn2cccn2)c(OC)n1 [Compound 206]
R: CCOc1cccc(OC)c1S(=N)(=O)NC(=O)c1ccc(Cn2cccn2)c(OC)n1 (racemic) [Compound 294]
## Task hey, can you rank those molecules up there by IC50? biggest number first please Return value: ordered labels per request.
## Result P, R, Q

* * *

# system: human-KAT6A (MYST domain 507-778 aa) (Homo sapiens (Human), UniProt Q92794)
# Sequence (Q92794 507-778): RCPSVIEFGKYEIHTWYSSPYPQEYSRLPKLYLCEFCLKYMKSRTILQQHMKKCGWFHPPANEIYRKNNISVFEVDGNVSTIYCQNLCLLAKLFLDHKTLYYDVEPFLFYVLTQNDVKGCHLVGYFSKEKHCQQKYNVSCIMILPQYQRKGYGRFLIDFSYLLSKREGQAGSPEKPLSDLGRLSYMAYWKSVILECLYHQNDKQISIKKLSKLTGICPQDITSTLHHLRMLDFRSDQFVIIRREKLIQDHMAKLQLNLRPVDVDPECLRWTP
# method_description: KAT6A biochemical assay (TR-FRET)
# run_conditions: TR-FRET; histone H4 peptide 200 nM, acetyl-CoA 600 nM; read-out: KAT6A IC50
pIC50: −log10 of the molar value.
recorded_endpoint: pIC50

I: COc1cc(Cl)cc(OC)c1S(=O)(=O)NC(=O)c1ccc(Cn2cccn2)c(OC)n1 [Compound 283]
II: CCc1ccc(OC)c(S(=O)(=O)NC(=O)c2ncc(Cn3cccn3)c(OC)n2)c1 [Compound 271]
## Task For I and II , which recorded pIC50 is lower? Your choice should be expressed through its label.
## Result II
(II: 7.43, I: 8.00)

1: COc1cc(OC)c(S(=O)(=O)NC(=O)c2ccc(Cn3cccn3)c(OC)n2)c2c1CCO2 [Compound 253]
2: COc1cccc(OC)c1S(=N)(=O)NC(=O)c1ccc(Cn2cccn2)c(OC)n1 (single isomer, unassigned) [Compound 243a]
3: COc1nc(C(=O)N[S@@](=N)(=O)c2ccccc2F)ccc1Cn1cccn1 [Compound 307a]
## Task # ascending order, key=pIC50 Return value: ordered labels per request.
## Result 3, 2, 1
(3: 6.97, 2: 7.77, 1: 8.05)

a: COc1cccc(OC)c1S(=O)(=O)NC(=O)c1ccc(Cn2cccn2)c(OC(F)(F)F)c1 [Compound 33]
b: COc1nc(C(=O)NS(=O)(=O)c2cc(C(C)(C)C)cc3c2OCC3)ccc1Cn1cccn1 [Compound 280]
c: CCOc1cccc(OC)c1[S@](=N)(=O)NC(=O)c1ccc(Cn2cccn2)c(OC)n1 [Compound 294a]
d: COc1cccc(OC)c1[S@](=N)(=O)NC(=O)c1ccc(Cn2cccn2)c(OC(F)(F)F)c1 [Compound 300a]
## Task hey, can you rank those compounds up there by pIC50? biggest number first please Return value: ordered labels per request.
## Result b, a, d, c

A: COc1ccc2c(c1S(=O)(=O)NC(=O)c1ccc(Cn3cccn3)c(OC)n1)OCO2 [Compound 281]
B: COc1cc(C(=O)NS(=O)(=O)c2ccc3c(c2)CCO3)ccc1Cn1cccn1 [Compound 310]
## Task For A and B , which recorded pIC50 is lower? Your choice should be expressed through its label.
## Result B
(B: 6.95, A: 8.00)
